Provenance of the data: the supplement of paper PMC10567573

B1: KCNAB2 (parent)
chain: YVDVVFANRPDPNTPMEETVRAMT

# Variants of: B1
# Run Description: protein stability index of a GFP-peptide fusion (GPS, HEK-293T) (PSI 1-6); higher = more stable;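 also: lentivirally expressed fusions sorted by FACS into six bins by GFP to DsRed ratio, PSI derived from sequencing read proportions per bin multiplied by bin number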
# Settings: c terminus: a fixed tail appended
Value Kind: protein stability index
// response body must contain only the number

Solved cases (10 shown):
Residue Sequence: YVDVVFANRPDCNTPMEETVRAMT [P12C]
Value Kind: protein stability index
Endpoint Result: 2.08
//
Residue Sequence: YVIVVFANRPDPNTPMEETVRAMT [D3I]
Value Kind: protein stability index
Endpoint Result: 4.3
//
Residue Sequence: YVDVVFANRPDPNTPMEETWRAMT [V20W]
Value Kind: protein stability index
Endpoint Result: 2.74
//
Residue Sequence: YVDVVFANRPDPNTPMEETVRAWT [M23W]
Value Kind: protein stability index
Endpoint Result: 2.06
//
Residue Sequence: YVDVVFANRPDPNTGMEETVRAMT [P15G]
Value Kind: protein stability index
Endpoint Result: 1.91
//
Residue Sequence: YVDVVFANRPDPNLPMEETVRAMT [T14L]
Value Kind: protein stability index
Endpoint Result: 2.37
//
Residue Sequence: YVDCVFANRPDPNTPMEETVRAMT [V4C]
Value Kind: protein stability index
Endpoint Result: 1.51
//
Residue Sequence: YVDVVFANRPDPNTPMEEQVRAMT [T19Q]
Value Kind: protein stability index
Endpoint Result: 1.9
//
Residue Sequence: YGDVVFANRPDPNTPMEETVRAMT [V2G]
Value Kind: protein stability index
Endpoint Result: 3.76
//
Residue Sequence: YVDVVFANRPDNNTPMEETVRAMT [P12N]
Value Kind: protein stability index
Endpoint Result: 1.28

Kindly note the recorded protein stability index for YVDVVFANRFDPNTPMEETVRAMT [P10F] , which is 2.8
